Target: human V1a receptor (Homo sapiens, UniProt P37288)
Construct: expressed in transfected cells; host or cells: HEK293 cells, transiently transfected; cell membranes prepared
Sequence (P37288 whole entry): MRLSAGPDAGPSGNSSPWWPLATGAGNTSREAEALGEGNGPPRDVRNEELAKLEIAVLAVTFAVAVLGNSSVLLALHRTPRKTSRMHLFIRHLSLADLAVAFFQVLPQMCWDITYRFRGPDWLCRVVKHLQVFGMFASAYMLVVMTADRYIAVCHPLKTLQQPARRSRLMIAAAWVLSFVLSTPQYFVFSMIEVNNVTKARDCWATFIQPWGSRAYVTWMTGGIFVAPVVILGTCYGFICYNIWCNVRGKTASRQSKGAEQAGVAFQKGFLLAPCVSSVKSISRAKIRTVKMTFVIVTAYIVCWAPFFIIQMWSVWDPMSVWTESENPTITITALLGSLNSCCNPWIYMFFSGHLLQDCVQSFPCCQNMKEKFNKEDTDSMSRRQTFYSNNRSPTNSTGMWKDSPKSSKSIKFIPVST
Test: human V1a receptor binding study (3H-Vasopressin, SPA beads, HEK293 membranes)
Settings: membranes of HEK293 cells transiently transfected with human V1a receptor; 3H-Vasopressin; Ki calculated using the Cheng-Prussoff equation; read-out: pKi (hV1a) (converted)
Counter-ions that a name gives are not always drawn.
Recorded log10 of Ki values for a group of compounds are listed next.
READOUT KIND: log10 of Ki (log10 of the value in nM)

INSERT INTO assay_data (compound, data_value) VALUES
  ('CC(C)O[C@H]1CC[C@H](c2nnc3n2-c2ccc(F)cc2CNC3)CC1 [Example 20, hydrochloride]', 2.40),
  ('CC(CC(F)(F)F)O[C@H]1CC[C@H](c2nnc3n2-c2ccc(Cl)cc2CN(C(=O)OC(C)(C)C)C3)CC1 (mixture of isomers)', 0.93),
  ('CN1Cc2cc(Cl)ccc2-n2c(nnc2[C@H]2CC[C@@H](OC3CCCCC3)CC2)C1', 1.15),
  ('CCO[C@H]1CC[C@@H](c2nnc3n2-c2ccc(Cl)cc2CN(C(=O)OC(C)(C)C)C3)CC1', 1.15),
  ('CN1Cc2cc(Cl)ccc2-n2c(nnc2[C@H]2CC[C@H](OC3CCCCC3)CC2)C1', 0.46),
  ('Clc1ccc2c(c1)CNCc1nnc([C@H]3CC[C@H](OC4CCCC4)CC3)n1-2 [Example 37, hydrochloride]', 0.54),
  ('CC(CC(F)(F)F)O[C@H]1CC[C@H](c2nnc3n2-c2ccc(Cl)cc2CNC3)CC1 (mixture of isomers) [Example 55, hydrochloride]', 1.88);

====

Biological target: human V1a receptor (Homo sapiens, UniProt P37288)
Construct: expressed in transfected cells; host or cells: HEK293 cells, transiently transfected; cell membranes prepared
Experiment: human V1a receptor binding study (3H-Vasopressin, SPA beads, HEK293 membranes)
Method: The human V1a receptor was cloned by RT-PCR from total human liver RNA. The coding sequence was subcloned in an expression vector after sequencing to confirm the identity of the amplified sequence. […] Cell membranes were prepared from HEK293 cells transiently transfected with the expression vector and grown in 20 liter fermenters with the following protocol. […]
Lab note: cut-off is 6 nM. Strictly less in Ki is rule met. Exactly 6 nM or more is rule not met.

INSERT INTO results (compound, class_name) VALUES
  ('CC(C)(C)OC(=O)N1Cc2cc(Cl)ccc2-n2c(nnc2[C@H]2CC[C@@H](OC3CCC3)CC2)C1 [Example 33]', 'rule not met'),
  ('CC(C)(C)OC(=O)N1Cc2cc(Cl)ccc2-n2c(nnc2[C@H]2CC[C@@H](OC3CCCCC3)CC2)C1 [Example 42]', 'rule not met'),
  ('CC(C)(C)OC(=O)N1Cc2cc(Cl)ccc2-n2c(nnc2[C@H]2CC[C@H](OC3CCCCC3)CC2)C1 [Example 39]', 'rule not met'),
  ('CC(C)(C)OC(=O)N1Cc2cc(Cl)ccc2-n2c(nnc2[C@H]2CC[C@H](OC3CCC3)CC2)C1 [Example 30]', 'rule met');

====

Target: human V1a receptor (Homo sapiens, UniProt P37288)
Construct: expressed in transfected cells; host or cells: HEK293 cells, transiently transfected; cell membranes prepared
Experiment: human V1a receptor binding study (3H-Vasopressin, SPA beads, HEK293 membranes)
Details: membranes of HEK293 cells transiently transfected with human V1a receptor; 3H-Vasopressin; Ki calculated using the Cheng-Prussoff equation; read-out: pKi (hV1a) (converted)
Structures can show the parent of a compound that is named as a salt.
Recorded Ki values for a group of molecules are listed next.
READOUT KIND: Ki (nM)

INSERT INTO assay_data (molecule, readout_kind, data_value) VALUES
  ('CC(C)(C)OC(=O)N1Cc2cc(Cl)ccc2-n2c(nnc2[C@H]2CC[C@@H](OC3CCOCC3)CC2)C1 [Example 60]', 'Ki', 7.08),
  ('CC(C)(C)OC(=O)N1Cc2cc(Cl)ccc2-n2c(nnc2[C@H]2CC[C@H](OC(F)(F)F)CC2)C1 [Example 65]', 'Ki', 14.5),
  ('CC(C)O[C@H]1CC[C@@H](c2nnc3n2-c2ccc(Cl)cc2CNC3)CC1 [Example 23, hydrochloride]', 'Ki', 363),
  ('CC(C)O[C@H]1CC[C@H](c2nnc3n2-c2ccc(Cl)cc2CN(S(=O)(=O)N(C)C)C3)CC1 [Example 14]', 'Ki', 1);
